system: c-Src; assay: phosphorylation enrichment, bacterial display (enrichment ratio); higher = better substrate or ligand; peptides without Tyr show the background;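 also: 11-residue human phosphosite peptides and single-mutation variants displayed on the E. coli surface, counted by deep sequencing, each peptide's frequency after selection divided by its frequency in the unselected input library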;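 also: frequency after pTyr selection over input frequency; kinase dosed for 20-30% of maximal phosphorylation in three min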
true (1) means recorded phosphorylation enrichment is 0.5 or above; false (0) means it is below 0.5.

Example results:
>>> classification("RRVLVYGDRGA [QDPR_Y16_G18D]")
"true (1)"
>>> classification("GLRYGYGVLGG [KRTAP20-2_Y15]")
"true (1)"
>>> classification("RDMNACIRPSP [MMAA_Y207_Y207C]")
"false (0)"

Input line: Decide: is the reported value of phosphorylation enrichment for GRTNICKNKKD [SLC26A3_Y520_Y520C] equal to or greater than 0.5?
Output line: false (0)

Input line: Say whether KKKKQYKGKFL [CASK_Y708_D710G_YF] shows phosphorylation enrichment of 0.5 or more.
Output line: true (1)

Input line: Item FADIAYNYRDG [PAH_Y166_H170D] with phosphorylation enrichment of 0.5 or above?
Output line: false (0)

Input line: Decide: is the reported value of phosphorylation enrichment for HKNNNYEPSLF [BRCA2_Y57_N60S] equal to or greater than 0.5?
Output line: true (1)

Input line: For this sequence, is measured phosphorylation enrichment 0.5 or higher? DFSLKYPTDIP [APC_Y1183_A1184P_YF]
Output line: true (1)
